This document collects Ki values reported for UniProt:P35398.
Sequence (P35398 whole entry): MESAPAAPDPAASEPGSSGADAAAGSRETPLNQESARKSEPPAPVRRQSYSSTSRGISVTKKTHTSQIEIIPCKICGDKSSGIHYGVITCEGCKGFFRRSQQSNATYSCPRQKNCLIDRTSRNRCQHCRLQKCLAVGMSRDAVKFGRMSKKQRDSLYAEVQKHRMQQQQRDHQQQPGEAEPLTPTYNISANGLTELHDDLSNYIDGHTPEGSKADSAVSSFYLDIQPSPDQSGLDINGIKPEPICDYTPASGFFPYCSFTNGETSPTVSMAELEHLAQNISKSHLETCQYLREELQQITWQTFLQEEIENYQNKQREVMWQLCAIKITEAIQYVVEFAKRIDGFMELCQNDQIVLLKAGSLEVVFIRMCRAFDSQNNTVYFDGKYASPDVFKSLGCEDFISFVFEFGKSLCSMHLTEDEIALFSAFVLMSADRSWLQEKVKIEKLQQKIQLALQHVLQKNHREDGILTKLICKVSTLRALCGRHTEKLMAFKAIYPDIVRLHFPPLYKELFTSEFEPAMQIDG

Compound | Ki
CCS(=O)(=O)c1ccc(CNC(=O)c2cc3c(s2)C2(CCN(C(C)c4ccc(C(F)(F)F)nc4)CC2)OC(C)C3)nc1 (single isomer, unassigned; isomer 2) [Example 46] | > 20.4 µM

Proceed to the following item.
// fetch Ki; item: CCS(=O)(=O)c1ccc(CNC(=O)c2cc3c(s2)C2(CCN(C(C)c4ccc(C(F)(F)F)nc4)CC2)OC(C)C3)cc1 (single isomer, unassigned; isomer 2) [Example 42] ; system: UniProt:P35398
> 20.4 µM

* * *

The entries below are paired with their reported pKi.
- Tested target: human RAR-related orphan receptor beta (hRORβ) (Homo sapiens (Human))
- Sequence (Q92753 whole entry): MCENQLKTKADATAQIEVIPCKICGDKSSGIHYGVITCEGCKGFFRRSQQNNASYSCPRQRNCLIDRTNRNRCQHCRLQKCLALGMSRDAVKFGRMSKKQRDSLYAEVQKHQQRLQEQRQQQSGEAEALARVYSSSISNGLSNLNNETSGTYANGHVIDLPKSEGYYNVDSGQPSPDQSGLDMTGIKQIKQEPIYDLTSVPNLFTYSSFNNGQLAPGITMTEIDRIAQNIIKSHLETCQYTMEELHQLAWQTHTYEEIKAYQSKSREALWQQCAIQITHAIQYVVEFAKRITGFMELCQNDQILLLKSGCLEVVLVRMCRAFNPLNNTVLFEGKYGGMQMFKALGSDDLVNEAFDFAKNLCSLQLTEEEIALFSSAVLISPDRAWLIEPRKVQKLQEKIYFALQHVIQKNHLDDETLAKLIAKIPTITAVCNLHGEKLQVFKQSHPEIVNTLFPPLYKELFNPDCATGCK
pKi: −log10 of the molar value.

// fetch pKi; item: CCS(=O)(=O)c1ccc(CNC(=O)c2cc3c(s2)C2(CCN(C(C)c4ccc(C(F)(F)F)nc4)CC2)OC(C)C3)cc1 (single isomer, unassigned; isomer 2) [Example 42] ; system: human RAR-related orphan receptor beta (hRORβ) (Homo sapiens (Human))
< 4.90

// fetch pKi; item: CCS(=O)(=O)c1ccc(CNC(=O)c2cc3c(s2)C2(CCN(C(C)c4cnc(C(F)(F)F)s4)CC2)O[C@@H](C)C3)nc1 (single isomer, unassigned; isomer 2) [Example 55] ; system: human RAR-related orphan receptor beta (hRORβ) (Homo sapiens (Human))
< 4.90

// fetch pKi; item: CCS(=O)(=O)c1ccc(CNC(=O)c2cc3c(s2)C2(CCN([C@H](C)c4cnc(C(F)(F)F)nc4)CC2)O[C@@H](C)C3)cc1 [Example 16] ; system: human RAR-related orphan receptor beta (hRORβ) (Homo sapiens (Human))
< 4.90

// fetch pKi; item: CCS(=O)(=O)c1ccc(CNC(=O)c2cc3c(s2)C2(CCN([C@@H](C)c4ccc(C#N)cc4)CC2)OCC3)cc1 [Example 64] ; system: human RAR-related orphan receptor beta (hRORβ) (Homo sapiens (Human))
< 4.64

* * *

- Tested target: human RORg ligand binding domain fused to yeast GAL4 DNA binding domain (Homo sapiens (Human))
- Sequence (P51449 269-508): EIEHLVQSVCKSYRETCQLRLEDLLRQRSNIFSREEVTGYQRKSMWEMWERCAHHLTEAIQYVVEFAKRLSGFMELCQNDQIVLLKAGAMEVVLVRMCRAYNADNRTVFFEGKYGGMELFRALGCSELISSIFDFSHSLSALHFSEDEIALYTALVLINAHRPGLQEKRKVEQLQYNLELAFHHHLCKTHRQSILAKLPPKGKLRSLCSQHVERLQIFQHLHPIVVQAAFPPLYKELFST
- Test protocol: HEK293 RORg GAL4 receptor-reporter assay
- Run parameters: HEK293 cells, RORg-GAL4/pGL4.31 luciferase, 18 hours; mean ± standard deviation; read-out: hIC50
The entries below are paired with their reported pIC50.
Just the number, please; pIC50 means minus log10 of the concentration in mol/L.

Compound | pIC50
CCS(=O)(=O)c1ccc(CNC(=O)c2cc3c(s2)C2(CCN(C(C)c4cnc(C(F)(F)F)nc4C)CC2)O[C@@H](C)C3)cc1 (single isomer, unassigned; isomer 1) [Example 66] | 7.50
CCS(=O)(=O)c1ccc(CNC(=O)c2cc3c(s2)C2(CCN(Cc4ccc(-c5ncon5)cc4F)CC2)O[C@@H](C)C3)nc1 [Example 25] | 7.79
CCS(=O)(=O)c1ccc(CNC(=O)c2cc3c(s2)C2(CCN(C(C)c4cnc(C(F)(F)F)nc4C)CC2)O[C@@H](C)C3)nc1 (single isomer, unassigned; isomer 2) [Example 69] | 7.81

Proceed to the following item.
Please supply the value of reported pIC50 for the item CCS(=O)(=O)c1ccc(CNC(=O)c2cc3c(s2)C2(CCN(C(C)c4ccc(C(F)(F)F)nc4)CC2)OC(C)C3)cc1 (single isomer, unassigned; isomer 2) [Example 42]
7.70
